Listing of recorded log10 IC50 by entry.
target or system: human HSV DNA polymerase UL30 (Human herpesvirus 1 (strain 17) (HHV-1) (Human herpes simplex virus 1), UniProt P04293)
protocol: biochemical
recorded conditions: 625 pM HSV polymerase, 20 minutes at room temperature; read-out: HSV-polymerase Biochemical IC50
Values below are the log10 of the recorded IC50, with nM as the unit.

Entry under review: `Cn1nc(C(=O)NCc2ccc(C#N)cc2)c2c1C(=O)N(CC1(S(=O)(=O)C(C)(C)CNC(=O)CN)CC1)CC2` . Reported log10 IC50? 1.81

GET /values?readout=log10 IC50&item= `Cn1nc(C(=O)NCc2ccc(C#N)cc2)c2c1C(=O)N(CC1(S(=O)(=O)N3C[C@@H](N)[C@H](O)C3)CC1)CC2` 2.16

Can you share its log10 IC50? I mean this compound: Cn1nc(C(=O)NCc2ccc(Cl)cc2)c2c1C(=O)N(CC1(S(=O)(=O)C(C)(C)C(O)CN)CC1)CC2 (single isomer, unassigned) [Example 201] 1.18

Would you kindly share the measured log10 IC50 for CNCC(O)C(C)(C)S(=O)(=O)C1(CN2CCc3c(C(=O)NCc4ccc(Cl)cc4)nn(C)c3C2=O)CC1 (single isomer, unassigned) [Example 205] ? 1.46

Need log10 IC50, item `COc1ccc(C)nc1NS(=O)(=O)C1(CN2CCc3c(C(=O)NCc4ccc(C#N)cc4)nn(C)c3C2=O)CC1` 2.48

For the compound `Cn1nc(C(=O)NCc2ccc(C#N)cc2)c2c1C(=O)N(CC1(S(=O)(=O)C(C)(C)[C@H](O)CN)CC1)CC2` , what log10 IC50 is on record? 1.36
